- Tested on: C33A
- assay-protocol: Primary qHTS to identify gynecologic anti-cancer compounds using libraries of approved drugs and bioactive compounds (AID 1345084); further: nearly all actives have a fitted effect of over 55% in size
- condition-details: Gynecologic cancer cell panel viability, ATPlite luminescence, 48 h; series mostly up to 57.5 µM
Inconclusive results are not listed. Active and inactive are the calls of the source. The call rests on the fitted dose curve; in most records, active means well fitted cell-killing curve with a large enough effect; inconclusive means small, poorly fitted or top-dose-only effect, or effect the other way; inactive means flat fitted curve, though single readings scatter.
Hi! Could you answer with just one of these? active, inactive

GET /call?item= Clc1ccc2ncc(-c3cccc(NC4CNC4)n3)n2c1 returns the recorded outcome of this test. inactive

----------
- assay-protocol: Quantitative High-Throughput drug screen in 47 multiple myeloma cell lines against the NCATS MIPE library collection: KMS12BM_JCRB cell viability assay (AID 1918971); further: nearly all actives have a fitted effect of over 35% in size
- condition-details: KMS12BM myeloma viability, CellTiter-Glo ATP, 48 h; series mostly up to 45.8 µM
Inconclusive results are not listed. Active and inactive are the calls of the source. Calls follow the shape of the dose curve; as a rule, active = well fitted cell-killing curve with a large enough effect; inconclusive = small, poorly fitted or top-dose-only effect, or effect the other way; inactive = no such curve, though single readings can be large or run the other way.
Hi! Could you answer with just one of these? active, inactive

Cn1c2cc(S(C)=O)sc2c2cnn(Cc3cccc(N)c3)c(=O)c21 (configuration not stated)    inactive
O=C(CCCCCCC(=O)Nc1ccc([C@H]2O[C@@H](CSc3nc(-c4ccccc4)c(-c4ccccc4)o3)C[C@@H](c3ccc(CO)cc3)O2)cc1)NO    active
O=c1[nH]c(=O)n(C2CCCO2)cc1F (configuration not stated)    active

GET /call?item= Cn1cc(-c2ccncc2)c(-c2ccc(OCc3ccc4ccccc4n3)cc2)n1 returns the recorded outcome of this test. active

GET /call?item= CN(c1ncccc1CNc1nc(Nc2ccc3c(c2)CC(=O)N3)ncc1C(F)(F)F)S(C)(=O)=O returns the recorded outcome of this test. active

GET /call?item= CNC(=O)c1cc(Oc2ccc(NC(=O)Nc3cc(C(C)(C)C)nn3-c3ccc4ncccc4c3)c(F)c2)ccn1 returns the recorded outcome of this test. active

GET /call?item= CC(C)(C)c1cc(NC(=O)Nc2ccc(-c3cn4c(n3)sc3cc(OCCN5CCOCC5)ccc34)cc2)no1 returns the recorded outcome of this test. active

GET /call?item= CC1(C)OC2=C(C(=O)c3ccccc3C2=O)[C@H](NCc2ccccc2)[C@H]1O returns the recorded outcome of this test. active

GET /call?item= CCC[C@H](NC(=O)C(C#N)=Cc1cccc(Br)n1)c1ccccc1 returns the recorded outcome of this test. active

GET /call?item= C=C1C(=CC=C2CCCC3(C)[C@@H]([C@H](C)C=CC=CC(O)(CC)CC)CC[C@@H]23)C[C@@H](O)C[C@@H]1O (some centres not stated) returns the recorded outcome of this test. active

GET /call?item= COc1cc(=C2C=c3ccccc3=N2)[nH]c1=Cc1[nH]c(C)cc1C returns the recorded outcome of this test. active

GET /call?item= CC(C)c1cc(C(=O)N2Cc3ccc(CN4CCN(C)CC4)cc3C2)c(O)cc1O returns the recorded outcome of this test. active

GET /call?item= COc1ccc(OC)c(-c2nnc3ccc(-c4ccc(OC)c(O[C@@H]5CCOC5)c4)nn23)c1 returns the recorded outcome of this test. active

GET /call?item= CC=C1NC(=O)[C@H]2CSSCCC=C[C@H](CC(=O)N[C@H](C(C)C)C(=O)N2)OC(=O)[C@H](C(C)C)NC1=O returns the recorded outcome of this test. active

GET /call?item= CC1=C(CO)C(=O)O[C@@H]([C@@H](C)[C@H]2CC[C@H]3[C@@H]4C[C@H]5O[C@]56[C@@H](O)C=CC(=O)[C@]6(C)[C@@H]4CC[C@]23C)C1 returns the recorded outcome of this test. active

GET /call?item= OCCCNc1cc(-c2ccnc(Nc3cccc(Cl)c3)n2)ccn1 returns the recorded outcome of this test. active

GET /call?item= CC=CC1=C(C(=O)O)N2C(=O)[C@H](NC(=O)[C@H](N)c3ccc(O)cc3)[C@@H]2SC1 returns the recorded outcome of this test. inactive

GET /call?item= Cc1cc(Nc2cc(NC(=O)c3c(Cl)cccc3Cl)ccn2)nc(N)n1 returns the recorded outcome of this test. active

GET /call?item= CN1CCN(c2ccc3nc(-c4c(N)c5c(F)cccc5[nH]c4=O)[nH]c3c2)CC1 returns the recorded outcome of this test. active

GET /call?item= CN1CCN(c2cc(C(=O)Nc3ccc4c(c3)-c3c(c(C(N)=O)nn3-c3ccc(F)cc3)CC4)c(Cl)cn2)CC1 returns the recorded outcome of this test. active
